# test_protocol: wn = mass fraction of the nth substance listed
# test_parameters: 313.15 K; 101 kPa; Liquid; Vibrating tube method; w1 = 0.3
Readings of mass density for the listed molecules
Return type: number; implicit unit kg/m3.

>>> experimental_result("CN(C)CCCN(C)C [N,N,N',N'-tetramethyl-1,3-propanediamine] + O")
953.1
>>> experimental_result("NCCNCCN [di(2-aminoethyl)amine] + O")
1004.5
>>> experimental_result("CN(C)CCN(C)C [N,N,N',N'-tetramethyl-1,2-diaminoethane] + O")
955.1

Moving on to the next molecule.
Qu. Answer with the recorded mass density for the molecule listed here: CNCCCN [N-methyl-1,3-diaminopropane] + O
Ans. 974.5

====

# test_protocol: wn = mass fraction of the nth substance listed
# test_parameters: 308.15 K; 101 kPa; Liquid; Taylor dispersion method; w1 = 0
binary diffusion coefficient by entry:
A number alone suffices; assume m2/s.

>>> experimental_result("CN(C)CCCN(C)C [N,N,N',N'-tetramethyl-1,3-propanediamine] + O")
"7.99e-10"
>>> experimental_result("NCCNCCN [di(2-aminoethyl)amine] + O")
"8.43e-10"
>>> experimental_result("CNCCCN [N-methyl-1,3-diaminopropane] + O")
"9.56e-10"

Shift focus to the following entry.
Qu. Give binary diffusion coefficient for the following compound: CN(C)CCN(C)C [N,N,N',N'-tetramethyl-1,2-diaminoethane] + O
Ans. 8.35e-10

====

# test_parameters: 323.15 K; 101 kPa; Liquid; Vibrating tube method
Reported mass density values for a set of compounds
Give the quantity in kg/m3, number only.

>>> experimental_result("CN(C)CCCN(C)C")
761.4

Qu. Using known records, supply mass density for `NCCNCCN`
Ans. 925.5

Qu. State its mass density: `CN(C)CCN(C)C`
Ans. 750.3

Qu. # return recorded mass density for input `CNCCCN`
Ans. 831.5

====

binary diffusion coefficient values, listed per item
# test_protocol: wn = mass fraction of the nth substance listed
# test_parameters: 303.15 K; 101 kPa; Liquid; Taylor dispersion method; w1 = 0.3
Number in m2/s, nothing else.

Some compounds with known binary diffusion coefficient results, for comparison:
>>> experimental_result("NCCNCCN [di(2-aminoethyl)amine] + O")
"6.14e-10"
>>> experimental_result("CN(C)CCCN(C)C [N,N,N',N'-tetramethyl-1,3-propanediamine] + O")
"3.05e-10"
>>> experimental_result("CNCCCN [N-methyl-1,3-diaminopropane] + O")
"6.4e-10"

Could you now consider this next compound?
Qu. Give me measured binary diffusion coefficient, please, for this compound: CN(C)CCN(C)C [N,N,N',N'-tetramethyl-1,2-diaminoethane] + O
Ans. 3.74e-10

====

Listing of recorded viscosity by entry.
# test_protocol: wn = mass fraction of the nth substance listed
# test_parameters: 323.15 K; 101 kPa; Liquid; Falling or rolling sphere viscometry; w1 = 0.1
Express the result in mPa·s but write the number alone.

Qu. Determine from records and report viscosity for CN(C)CCCN(C)C [N,N,N',N'-tetramethyl-1,3-propanediamine] + O
Ans. 0.846

Qu. Using known records, supply viscosity for CNCCCN [N-methyl-1,3-diaminopropane] + O
Ans. 0.808

Qu. State its viscosity for this compound: CN(C)CCN(C)C [N,N,N',N'-tetramethyl-1,2-diaminoethane] + O
Ans. 0.839

Qu. Entry NCCNCCN [di(2-aminoethyl)amine] + O needs its viscosity filled in; supply it.
Ans. 0.799
